Below, each of the molecules is paired with its reported GI50 value.
Tested on: BT-549 breast
Assay: NCI tumour cell line growth inhibition, 48 h

>  <Smiles notation>
C=C1C(=O)O[C@H]2[C@H]1CC/C(CNC(=O)c1cccc3ccccc13)=C\CC[C@@]1(C)O[C@@H]21

>  <GI50>
1580 nM

$$$$
>  <Smiles notation>
COC(=O)[C@@H](C)C[C@H](Cc1ccccc1)NC(=O)c1cccc([C@@H](C[C@H](C(C)C)N(C)C(=O)[C@@H](NC(=O)[C@H]2CCCCN2C)C2CC2)OC(C)=O)n1

>  <GI50>
3.33 nM

$$$$
>  <Smiles notation>
COc1ncc(-c2ccc3nccc(C#CCCCCC(=O)O)c3c2)cc1NS(=O)(=O)c1ccc(F)cc1F

>  <GI50>
449 nM

$$$$
>  <Smiles notation>
O=c1c2c([nH]c3ccccc13)CCCC2

>  <GI50>
> 100000 nM

$$$$
>  <Smiles notation>
Nc1n[n+](=O)c2ccccc2n1O

>  <GI50>
19300 nM

$$$$
>  <Smiles notation>
C=CCn1c(SCC(=O)Nc2ccc(C(=O)/C=C/c3cc(OC)c(OC)c(OC)c3)cc2)nnc1-c1ccc(Cl)cc1

>  <GI50>
2400 nM

$$$$

====

System: HT29 colon
Test: NCI tumour cell line growth inhibition, 48 h
*1 amine or outer side, *2 acyl side, *3 side chain or, on linkers, in order; H or OH if unused. Where a SMILES comes first, the peptide text is derived from it. [ ]: non-standard residue; d: D form. ξ: configuration not given here. Ile(3ξ) = CCC(C)[C@H](N)C(=O)O; X33 = C=CCC(O[*:1])C(=O)[*:2]; NMeV = CN[C@H](C(=O)O)C(C)C; NMeA = CN[C@@H](C)C(=O)O; βAla = NCCC(=O)O
Property label: TGI

>  <Compound>
COc1ccc(N2C(=O)C3c4[nH]c5ccccc5c4C4CCC(c5ccccc5)CC4C3C2=O)cc1 (stereo not given)

>  <Study system>
HT29 colon

>  <Assay result>
> 100 µM

$$$$
>  <Compound>
COC(=O)CCC1=NOC(CC2CC(CCC(=O)OC)=NO2)C1 (stereo not given)

>  <Study system>
HT29 colon

>  <Assay result>
> 100 µM

$$$$
>  <Compound>
Cc1cccc(C(C)(C)C)c1NC(=O)CCl

>  <Study system>
HT29 colon

>  <Assay result>
> 100 µM

$$$$
>  <Compound>
N#Cc1c(-c2ccc([N+](=O)[O-])cc2)cc(-c2ccc(Nc3ccnc4cc(C(F)(F)F)ccc34)cc2)[nH]c1=O

>  <Study system>
HT29 colon

>  <Assay result>
> 100 µM

$$$$
>  <Compound>
C(=N\c1nc2cc3sc(/N=C/c4cccs4)nc3cc2s1)/c1cccs1

>  <Study system>
HT29 colon

>  <Assay result>
> 100 µM

$$$$
>  <Compound>
O=C1NC(=O)/C(=C/c2c(Cl)nc3sccn23)S1

>  <Study system>
HT29 colon

>  <Assay result>
> 100 µM

$$$$
>  <Compound>
O=C1C=CC(=O)c2c(O)ccc(O)c21

>  <Study system>
HT29 colon

>  <Assay result>
5.68 µM

$$$$
>  <Compound>
c1ccc(NNC2=NCCN2)cc1

>  <Study system>
HT29 colon

>  <Assay result>
> 100 µM

$$$$
>  <Compound>
C=CCC1OC(=O)CCNC(=O)[C@H](C)N(C)C(=O)[C@H](C(C)C)N(C)C(=O)[C@H](C(C)CC)NC(=O)[C@@H]2CCCN2C1=O (stereo not given in full) (cyclo([Ile(3ξ)][NMeV][NMeA][βAla][X33]P))

>  <Study system>
HT29 colon

>  <Assay result>
> 100 µM

$$$$
>  <Compound>
CC(=O)Oc1ccc2[nH]c3c(C)c4cccc-4ccc3c2c1

>  <Study system>
HT29 colon

>  <Assay result>
4.18 µM

$$$$
>  <Compound>
C[n+]1c2ccccc2n2c3ccccc3c(NCCCN3CCOCC3)c(C#N)c21

>  <Study system>
HT29 colon

>  <Assay result>
> 100 µM

$$$$
>  <Compound>
O=C1c2ccccc2C(=Nc2ccc3ccccc3c2)C1(C1=C(c2ccccc2)C(=Nc2ccc3ccccc3c2)c2ccccc21)c1ccccc1 (stereo not given)

>  <Study system>
HT29 colon

>  <Assay result>
> 100 µM

$$$$
>  <Compound>
N#Cc1c2c(c(Cl)n3c1nc1ccccc13)CCCC2

>  <Study system>
HT29 colon

>  <Assay result>
2.86 µM

$$$$
>  <Compound>
CCn1c2ccccc2c2cc(/C=C(/C#N)C(N)=S)ccc21

>  <Study system>
HT29 colon

>  <Assay result>
> 42.7 µM

$$$$
>  <Compound>
COc1cc(/C=C2/SC(c3ccccc3)N(c3cccc(NC(C)=O)c3)C2=O)cc(OC)c1OC (stereo not given)

>  <Study system>
HT29 colon

>  <Assay result>
> 100 µM

$$$$

====

Below, each of the molecules is paired with its reported TGI value.
System: UO-31 renal
Assay: NCI tumour cell line growth inhibition, 48 h

>  <Molecule>
O=C(C=P(c1ccccc1)(c1ccccc1)c1ccccc1)c1ccc(-c2cccc([N+](=O)[O-])c2)cc1

>  <TGI>
4.8 µM

$$$$
>  <Molecule>
C=CCSc1nc2c(N)ncnc2n1C1OC(CO)C(O)C1O (centres undefined)

>  <TGI>
> 100 µM

$$$$
>  <Molecule>
N#C/C(=C\c1cn(Cc2ccccc2)c2ccccc12)C(=O)Nc1ncc(Cc2ccccc2Cl)s1

>  <TGI>
3.18 µM

$$$$
>  <Molecule>
COc1cccc(/C=C/c2ccc(S(N)(=O)=O)cc2)c1

>  <TGI>
> 100 µM

$$$$
>  <Molecule>
O=C1C(Cl)C(c2cc(Br)cc(Br)c2O)N1n1cnc2ccccc2c1=O (centres undefined)

>  <TGI>
76.1 µM

$$$$
>  <Molecule>
Cc1ccc(/C(=N/NS(=O)(=O)c2ccc([N+](=O)[O-])cc2)Sc2cc(Cl)c(C)cc2S(N)(=O)=O)cc1

>  <TGI>
> 100 µM

$$$$
>  <Molecule>
N#Cc1c(-c2ccc([N+](=O)[O-])cc2)cc(-c2ccc(Nc3ccnc4cc(C(F)(F)F)ccc34)cc2)[nH]c1=O

>  <TGI>
> 100 µM

$$$$
>  <Molecule>
COc1cc(/C=C2/SC(c3ccccc3)N(c3cccc(NC(C)=O)c3)C2=O)cc(OC)c1OC (centres undefined)

>  <TGI>
> 100 µM

$$$$
>  <Molecule>
Cn1c(C(O)C2(c3cccnc3)SCCCS2)cc2ccccc21 (centres undefined)

>  <TGI>
> 100 µM

$$$$

====

Test system: CAKI-1 renal
Test: NCI tumour cell line growth inhibition, 48 h
*1 amine or outer side, *2 acyl side, *3 side chain or, on linkers, in order; H or OH if unused. Where a SMILES comes first, the peptide text is derived from it. [ ]: non-standard residue; d: D form. ξ: configuration not given here. Ile(3ξ) = CCC(C)[C@H](N)C(=O)O; X33 = C=CCC(O[*:1])C(=O)[*:2]; NMeV = CN[C@H](C(=O)O)C(C)C; NMeA = CN[C@@H](C)C(=O)O; βAla = NCCC(=O)O
Below, each of the compounds is paired with its reported TGI value.

>  <Compound>
COc1cccc(/C=C/c2ccc(S(N)(=O)=O)cc2)c1

>  <TGI>
> 100 µM

$$$$
>  <Compound>
Cn1c(=O)n(CCCO)c(=O)c2c1nc(Oc1cccc(OC(F)(F)F)c1)n2Cc1ccc(Cl)cc1

>  <TGI>
22.6 µM

$$$$
>  <Compound>
CCN(CC)CCn1ncc2c3c(=O)c4cccnc4n(CCN(CC)CC)c3ccc21

>  <TGI>
> 10 µM

$$$$
>  <Compound>
COc1cc(/C=C/C(=O)c2ccc(Nc3nc(Nc4ccc(F)cc4)nc(Nc4ccc(Cl)cc4)n3)cc2)cc(OC)c1OC

>  <TGI>
> 100 µM

$$$$
>  <Compound>
C=CCC1OC(=O)CCNC(=O)[C@H](C)N(C)C(=O)[C@H](C(C)C)N(C)C(=O)[C@H](C(C)CC)NC(=O)[C@@H]2CCCN2C1=O (stereo partly specified) (cyclo([Ile(3ξ)][NMeV][NMeA][βAla][X33]P))

>  <TGI>
> 78.6 µM

$$$$
>  <Compound>
CC(=O)Oc1ccc2[nH]c3c(C)c4cccc-4ccc3c2c1

>  <TGI>
3.41 µM

$$$$
>  <Compound>
CCCCC1CC(c2ccc(Cl)cc2)=NO1 (stereo unspecified)

>  <TGI>
> 100 µM

$$$$
>  <Compound>
Cn1c2c([N+](=O)[O-])cccc2c(=O)c2c(O)cc3c(c21)C=CC(C)(C)O3

>  <TGI>
> 100 µM

$$$$
>  <Compound>
CN(NC(=O)/C(=C/c1ccc(Cl)cc1)NC(=O)c1ccccc1)c1cn[nH]c(=O)c1Cl

>  <TGI>
> 100 µM

$$$$
>  <Compound>
C[CH2][Sn]([CH2]C)([O]C(=O)c1cccc(OC)c1)[O][Sn]([CH2]C)([CH2]C)[O]C(=O)c1cccc(OC)c1

>  <TGI>
24.3 µM

$$$$
>  <Compound>
N#Cc1c(-c2ccc(Cl)cc2)csc1NC(=O)Nc1ccc(Cl)c(C(F)(F)F)c1

>  <TGI>
5.57 µM

$$$$
>  <Compound>
CC1(F)C=CC(=O)C=C1

>  <TGI>
> 100 µM

$$$$
>  <Compound>
COC(=O)[C@](NC(=O)OCc1ccccc1)([C@@H](C)S(=O)c1ccc(C)cc1)C(F)(F)F (stereo partly specified)

>  <TGI>
> 100 µM

$$$$
>  <Compound>
CCCc1nc(N)nc(C(=O)Nc2cccc(C(F)(F)F)c2)c1CC

>  <TGI>
> 100 µM

$$$$
>  <Compound>
CCN1C(=O)C(=C/C=C/c2ccc(OC)cc2)C(=O)N(CC)C1=S

>  <TGI>
47.2 µM

$$$$
>  <Compound>
O=C(NC(=S)Nc1ccccn1)c1ccccc1

>  <TGI>
> 100 µM

$$$$
>  <Compound>
O=C1c2ccccc2-c2ccccc2C(=O)C1(Br)Br

>  <TGI>
16.7 µM

$$$$
>  <Compound>
O=C(C=P(c1ccccc1)(c1ccccc1)c1ccccc1)c1ccc(-c2cccc([N+](=O)[O-])c2)cc1

>  <TGI>
9.38 µM

$$$$
>  <Compound>
CCOC(=O)Cc1csc(NC(=O)COC(=O)c2ccc(N)cc2)n1

>  <TGI>
> 100 µM

$$$$
>  <Compound>
O=C1NC(=O)/C(=C/c2c(Cl)nc3sccn23)S1

>  <TGI>
> 100 µM

$$$$
>  <Compound>
COc1cc(N2C(=O)C(=O)C3(CCCCC3)C2=O)cc(OC)c1OC

>  <TGI>
> 100 µM

$$$$

These measurements were taken from PubChem BioAssay (NCI).
